Listed below: microsomal CLint values for each entry.
assay: Intrinsic clearance in human liver microsomes by LC-MS/MS analysis; format: ADME, Microsome; details: liver microsomes, read-out: CLH

SMILES INPUT: CN1CCN(c2ncc(-c3ccc4c(Nc5cnccn5)ccnc4c3)cn2)CC1
microsomal CLint: 180 µL/min/mg

SMILES INPUT: CN(CCNc1ncc(-c2ccc3c(Nc4cnccn4)ccnc3c2)cn1)C(=O)OC(C)(C)C
microsomal CLint: > 300 µL/min/mg

###

assay: Intrinsic clearance in human liver microsomes by LC-MS/MS analysis; assay type: ADME, Microsome; conditions: microsomes
Microsomal intrinsic clearance under 200 µL/min/mg gets condition met, anything at or over 200 µL/min/mg gets condition not met.

MOLECULE: CCCn1cc/c(=N\c2cnccn2)c2ccc(-c3cnc(N4CCCN(C)CC4)nc3)cc21
ASSIGNED CATEGORY: condition met

MOLECULE: CN1CCN(c2ncc(-c3ccc4c(Nc5cnccn5)ccnc4c3)cn2)CC1.O=C(O)CC(O)(CC(=O)O)C(=O)O
ASSIGNED CATEGORY: condition met

MOLECULE: CCCN1CCCN(c2ncc(-c3ccc4c(Nc5cnccn5)ccnc4c3)cn2)CC1
ASSIGNED CATEGORY: condition not met

MOLECULE: O=C(O)CN1CCN(c2ncc(-c3ccc4c(Nc5cnccn5)ccnc4c3)cn2)CC1
ASSIGNED CATEGORY: condition met

MOLECULE: CC(C)(C)OC(=O)NCCNc1ncc(-c2ccc3c(Nc4cnccn4)ccnc3c2)cn1
ASSIGNED CATEGORY: condition not met

MOLECULE: c1cnc(Nc2ccnc3cc(-c4cnc(N5CCNCC5)nc4)ccc23)cn1
ASSIGNED CATEGORY: condition met

MOLECULE: Cc1nccnc1Nc1ccnc2cc(-c3cnc(N4CCCN(C)CC4)nc3)ccc12
ASSIGNED CATEGORY: condition met

MOLECULE: c1cnc(Nc2ccnc3cc(-c4cnc(N5CCCCCC5)nc4)ccc23)cn1
ASSIGNED CATEGORY: condition not met

MOLECULE: CN1CCN(c2ncc(-c3ccc4c(Nc5cnccn5)ccnc4c3)cn2)CC1.Cl
ASSIGNED CATEGORY: condition met

MOLECULE: CN1CCN(c2ncc(-c3ccc4c(NC5CCCCC5)ccnc4c3)cn2)CC1
ASSIGNED CATEGORY: condition not met

MOLECULE: CN1CCN(c2ncc(-c3ccc4c(NC5CCOCC5)ccnc4c3)cn2)CC1
ASSIGNED CATEGORY: condition met

MOLECULE: CN1C[C@@H]2C[C@H]1CN2c1ncc(-c2ccc3c(Nc4cnccn4)ccnc3c2)cn1
ASSIGNED CATEGORY: condition met

MOLECULE: CN1CC2(CCN(c3ncc(-c4ccc5c(Nc6cnccn6)ccnc5c4)cn3)C2)C1
ASSIGNED CATEGORY: condition met

MOLECULE: Cc1cnc(Nc2ccnc3cc(-c4cnc(N5CCCN(C)CC5)nc4)ccc23)cn1
ASSIGNED CATEGORY: condition met

MOLECULE: CN1CCC2(CCN(c3ncc(-c4ccc5c(Nc6cnccn6)ccnc5c4)cn3)C2)C1 (centres undefined)
ASSIGNED CATEGORY: condition met

MOLECULE: CN1CCN(c2ncc(-c3ccc4c(N[C@@H]5CCCC[C@H]5O)ccnc4c3)cn2)CC1
ASSIGNED CATEGORY: condition met

MOLECULE: CN1CCN(c2ncc(Nc3ccc4c(Nc5cnccn5)ccnc4c3)cn2)CC1
ASSIGNED CATEGORY: condition met

MOLECULE: NCCNc1ncc(-c2ccc3c(Nc4cnccn4)ccnc3c2)cn1
ASSIGNED CATEGORY: condition met
